molecular target: Serine/threonine-protein kinase pim-3 (Homo sapiens); settings: at 1 µM
Description: GSK_PKIS: PIM3 mean inhibition at 1 uM [Nanosyn]
# Lookup of reported inhibition keyed by entry
Lab book: enter the figure in %, no units written.

As a guide, the following entries are already answered.
1) Cc1ccc2c(-c3ccnc(Nc4ccccc4)n3)c(-c3ccc(F)cc3)nn2n1 :: -3.61
2) COc1ccc2c(-c3ccnc(Nc4cccc(OC(F)(F)F)c4)n3)cnn2n1 :: 1.07

// next entry
Noted for CCn1c(-c2nonc2N)nc2c(C#CC(C)(C)O)nc(OC[C@H](N)c3ccccc3)cc21 : its inhibition reads 4.27

---

target: Tyrosine-protein kinase receptor UFO (Homo sapiens) (UniProt P30530); settings: at 0.1 µM;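 further: values are mean percent inhibition of AXL from the GSK PKIS screen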
Sequence (P30530 whole entry): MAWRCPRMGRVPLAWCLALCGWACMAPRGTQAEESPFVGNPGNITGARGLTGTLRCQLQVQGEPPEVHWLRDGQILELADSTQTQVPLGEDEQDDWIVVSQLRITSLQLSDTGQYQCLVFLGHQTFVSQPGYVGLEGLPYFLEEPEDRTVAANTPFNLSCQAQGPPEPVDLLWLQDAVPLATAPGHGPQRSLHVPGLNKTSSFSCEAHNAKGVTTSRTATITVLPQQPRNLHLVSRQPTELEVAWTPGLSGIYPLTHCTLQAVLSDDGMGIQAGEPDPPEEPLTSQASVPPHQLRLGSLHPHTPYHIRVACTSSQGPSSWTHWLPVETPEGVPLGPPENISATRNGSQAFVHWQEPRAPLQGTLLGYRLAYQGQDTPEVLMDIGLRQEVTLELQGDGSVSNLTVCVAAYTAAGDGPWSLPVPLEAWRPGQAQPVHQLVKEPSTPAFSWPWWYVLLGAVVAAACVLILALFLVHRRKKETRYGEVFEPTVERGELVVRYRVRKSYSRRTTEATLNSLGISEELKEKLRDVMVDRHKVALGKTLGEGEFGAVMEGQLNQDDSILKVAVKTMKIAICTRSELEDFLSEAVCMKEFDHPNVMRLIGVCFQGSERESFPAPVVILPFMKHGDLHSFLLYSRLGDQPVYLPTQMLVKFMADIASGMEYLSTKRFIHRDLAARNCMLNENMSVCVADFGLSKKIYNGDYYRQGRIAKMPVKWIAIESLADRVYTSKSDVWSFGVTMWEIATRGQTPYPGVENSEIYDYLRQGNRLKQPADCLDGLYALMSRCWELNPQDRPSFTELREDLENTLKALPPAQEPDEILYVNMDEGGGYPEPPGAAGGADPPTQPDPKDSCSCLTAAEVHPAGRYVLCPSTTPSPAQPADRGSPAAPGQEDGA
measured_metric: inhibition (%)
Lab book: enter the figure in %, no units written.

1. CNC(=O)c1cc(-c2ccc(F)cc2)cc(-c2ccc(S(=O)(=O)N3CCCC3)cc2)c1N :: -5.35
2. CS(=O)(=O)CCNCc1coc(-c2ccc3ncnc(Nc4ccc(OCc5ccccc5)cc4)c3c2)c1 :: -2.71
3. NC(=O)c1sc(-n2cnc3ccc(C(F)(F)F)cc32)cc1OCc1ccccc1Br :: -8.18
4. CCCN1CCC(c2ccc(Nc3nc(Nc4cc(F)ccc4C(N)=O)c4cc[nH]c4n3)c(OC)c2)CC1 :: 17.1
5. COc1cc(Nc2nccc(Nc3ccc4c(C)n[nH]c4c3)n2)cc(OC)c1OC :: 0.91

Noted for COC(=O)c1sc(-n2cnc3cc(OC)c(OC)cc32)cc1OCc1ccccc1C(F)(F)F : its inhibition reads -8.88

Noted for CC(=O)NCc1cccc(C#Cc2cncnc2Nc2ccc(OCc3cccc(F)c3)c(Cl)c2)c1 : its inhibition reads -0.21

Noted for Fc1ccc(-c2nn3ccccc3c2-c2ccncc2)cc1 : its inhibition reads -2.22

Noted for c1ccc(COc2ccc(Nc3ncnc4ccc(-c5ccco5)cc34)cc2)cc1 : its inhibition reads 0.76

---

system: Proto-oncogene tyrosine-protein kinase receptor Ret (Homo sapiens), P07949 [Y791F]; conditions: at 1 µM
Sequence (P07949 whole entry Y791F): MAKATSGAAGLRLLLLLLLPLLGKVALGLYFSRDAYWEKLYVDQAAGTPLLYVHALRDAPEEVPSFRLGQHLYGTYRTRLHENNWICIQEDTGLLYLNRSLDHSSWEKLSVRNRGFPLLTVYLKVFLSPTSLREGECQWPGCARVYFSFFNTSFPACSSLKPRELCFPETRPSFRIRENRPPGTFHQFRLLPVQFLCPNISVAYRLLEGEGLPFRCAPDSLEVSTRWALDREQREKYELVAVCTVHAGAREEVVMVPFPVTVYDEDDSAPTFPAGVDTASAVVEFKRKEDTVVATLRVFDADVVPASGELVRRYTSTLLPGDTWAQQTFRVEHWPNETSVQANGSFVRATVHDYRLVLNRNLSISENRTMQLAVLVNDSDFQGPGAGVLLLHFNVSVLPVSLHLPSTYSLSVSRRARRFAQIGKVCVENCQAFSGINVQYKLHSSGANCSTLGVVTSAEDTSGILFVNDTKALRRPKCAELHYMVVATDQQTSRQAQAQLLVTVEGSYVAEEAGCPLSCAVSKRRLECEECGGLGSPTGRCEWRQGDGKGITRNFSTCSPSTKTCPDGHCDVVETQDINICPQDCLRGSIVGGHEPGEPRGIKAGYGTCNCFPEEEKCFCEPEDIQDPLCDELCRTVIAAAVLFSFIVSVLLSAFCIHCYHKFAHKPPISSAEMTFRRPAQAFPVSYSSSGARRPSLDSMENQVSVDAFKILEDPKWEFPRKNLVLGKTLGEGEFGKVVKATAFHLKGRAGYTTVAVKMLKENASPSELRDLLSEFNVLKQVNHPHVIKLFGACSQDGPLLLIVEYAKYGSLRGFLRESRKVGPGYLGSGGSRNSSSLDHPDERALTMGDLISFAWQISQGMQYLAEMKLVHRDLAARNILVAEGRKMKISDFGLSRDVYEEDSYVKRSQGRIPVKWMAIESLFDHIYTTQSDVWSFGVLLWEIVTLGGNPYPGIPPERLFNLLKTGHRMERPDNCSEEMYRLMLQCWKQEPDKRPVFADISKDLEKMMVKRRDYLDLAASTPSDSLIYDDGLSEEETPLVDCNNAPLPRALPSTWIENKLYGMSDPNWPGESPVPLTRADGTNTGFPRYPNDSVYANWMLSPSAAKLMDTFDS
measured_metric: inhibition (%)
Lab book: enter the figure in %, no units written.

As a guide, the following entries are already answered.
1. Nc1nc(-c2ccc(F)cc2)c(-c2ccc3ncccc3n2)s1 :: 14
2. COc1cc(/C=N/Nc2ncnc3[nH]ncc23)ccc1O :: 80.9
3. CCOc1ccc2c(-c3ccnc(Nc4cccc(C(F)(F)F)c4)n3)cnn2n1 :: 12.4
4. CCn1c(-c2nonc2N)nc2cnc(Oc3cccc(NC(=O)c4ccc(N(C)C)cc4)c3)cc21 :: 1.39

Noted for COC(=O)Nc1nc2ccc(S(=O)(=O)c3ccc(NC(=O)Nc4cc(C(F)(F)F)ccc4F)cc3)cc2[nH]1 : its inhibition reads 0.06

---

biological target: Epidermal growth factor receptor (Homo sapiens) (UniProt P00533); conditions: at 0.1 µM
Sequence (P00533 whole entry): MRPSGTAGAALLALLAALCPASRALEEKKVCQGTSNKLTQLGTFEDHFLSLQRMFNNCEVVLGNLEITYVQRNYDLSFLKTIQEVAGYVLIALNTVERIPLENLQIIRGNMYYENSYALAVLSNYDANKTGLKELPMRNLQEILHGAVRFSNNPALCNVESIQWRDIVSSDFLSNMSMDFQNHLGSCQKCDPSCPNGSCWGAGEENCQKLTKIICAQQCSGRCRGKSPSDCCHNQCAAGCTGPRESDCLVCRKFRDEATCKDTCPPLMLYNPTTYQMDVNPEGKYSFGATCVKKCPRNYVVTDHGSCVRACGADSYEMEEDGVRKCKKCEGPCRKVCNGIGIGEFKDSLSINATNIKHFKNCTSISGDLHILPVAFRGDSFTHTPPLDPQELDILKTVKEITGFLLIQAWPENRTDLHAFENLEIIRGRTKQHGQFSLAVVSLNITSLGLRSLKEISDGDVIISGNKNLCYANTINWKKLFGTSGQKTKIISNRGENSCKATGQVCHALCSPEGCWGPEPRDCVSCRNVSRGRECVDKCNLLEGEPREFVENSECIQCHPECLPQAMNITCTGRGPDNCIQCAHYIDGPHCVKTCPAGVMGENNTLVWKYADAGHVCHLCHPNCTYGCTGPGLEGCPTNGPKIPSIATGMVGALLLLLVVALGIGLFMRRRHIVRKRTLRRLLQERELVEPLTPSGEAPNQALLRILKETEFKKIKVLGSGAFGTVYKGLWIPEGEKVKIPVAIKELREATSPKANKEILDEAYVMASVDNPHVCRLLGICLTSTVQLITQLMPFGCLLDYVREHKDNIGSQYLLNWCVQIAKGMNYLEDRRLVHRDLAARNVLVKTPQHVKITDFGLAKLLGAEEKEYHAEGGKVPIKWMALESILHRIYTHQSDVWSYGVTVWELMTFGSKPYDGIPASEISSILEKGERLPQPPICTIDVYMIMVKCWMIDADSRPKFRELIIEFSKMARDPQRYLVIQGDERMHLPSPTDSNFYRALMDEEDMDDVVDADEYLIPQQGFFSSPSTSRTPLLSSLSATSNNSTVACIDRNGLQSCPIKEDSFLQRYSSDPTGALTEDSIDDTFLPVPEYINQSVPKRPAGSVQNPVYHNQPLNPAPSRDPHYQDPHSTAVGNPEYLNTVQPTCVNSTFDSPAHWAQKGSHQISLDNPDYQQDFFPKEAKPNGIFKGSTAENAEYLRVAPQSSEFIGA
Description: GSK_PKIS: EGFR mean inhibition at 0.1 uM [Nanosyn]
# Lookup of reported inhibition keyed by entry
Lab book: enter the figure in %, no units written.

1) CCn1c(-c2nonc2N)nc2ccccc21 :: 2.08
2) COc1ccc(-c2cc3c(N)ncnc3o2)cc1 :: 0.82
3) Cc1cccc2c1NC(=O)/C2=N\Nc1ccc(S(N)(=O)=O)cc1 :: 5.97
4) CCCN(CCS(C)(=O)=O)Cc1ccc(-c2ccc3ncnc(Nc4ccc(OCc5cccc(F)c5)c(Cl)c4)c3c2)o1 :: 77.6
5) CCn1c(-c2nonc2N)nc2c(C#CC(C)(C)O)ncc(OC3CCNCC3)c21 :: 1.89
6) COC(=O)Nc1nc2ccc(Oc3ccc(NC(=O)Nc4cccc(Cl)c4)cc3)cc2[nH]1 :: 3.42

// next entry
Noted for CN(C)CCOc1ccc(-c2nc(-c3ccncc3)c(-c3ccc4c(c3)CC/C4=N\O)[nH]2)cc1 : its inhibition reads 2.89

---

# Lookup of reported inhibition keyed by entry
Target: Interleukin-1 receptor-associated kinase 4 (Homo sapiens) (UniProt Q9NWZ3);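 further: reported figure is the mean inhibition of IRAK4 activity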
Sequence (whole entry): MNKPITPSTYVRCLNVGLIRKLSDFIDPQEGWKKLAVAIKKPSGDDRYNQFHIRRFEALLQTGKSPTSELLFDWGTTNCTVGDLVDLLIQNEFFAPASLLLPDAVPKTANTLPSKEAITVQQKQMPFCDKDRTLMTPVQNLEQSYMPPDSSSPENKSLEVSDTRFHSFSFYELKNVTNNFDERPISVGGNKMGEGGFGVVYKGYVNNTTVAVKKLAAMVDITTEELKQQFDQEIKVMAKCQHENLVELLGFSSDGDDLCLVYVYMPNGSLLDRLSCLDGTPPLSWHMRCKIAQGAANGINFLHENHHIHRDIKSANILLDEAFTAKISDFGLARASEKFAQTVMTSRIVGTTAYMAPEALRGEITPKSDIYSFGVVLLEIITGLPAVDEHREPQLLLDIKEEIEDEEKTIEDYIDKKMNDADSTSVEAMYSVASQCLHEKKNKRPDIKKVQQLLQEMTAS
Details: at 0.1 µM
Lab book: enter the figure in %, no units written.

As a guide, the following entries are already answered.
1) COc1cccc(-c2c[nH]c3c(N/N=C/c4ccncc4)ncnc23)c1 :: -2.59
2) CS(=O)(=O)CCNCc1coc(-c2ccc3ncnc(Nc4ccc(OCc5ccccc5)cc4)c3c2)c1 :: 1.8
3) c1ccc(COc2ccc(Nc3ncnc4ccc(-c5ccco5)cc34)cc2)cc1 :: 0.92
4) CCn1c(-c2nonc2N)nc2cnc(Oc3cccc(NC(=O)c4ccc(N(C)C)cc4)c3)cc21 :: 0.85

// next entry
Given the compound COc1cc2c(cc1Nc1nc(Nc3ccsc3C(N)=O)c3cc[nH]c3n1)N(C(=O)CN(C)C)CCC2(C)C and test system Interleukin-1 receptor-associated kinase 4 (Homo sapiens) (UniProt Q9NWZ3), the measured inhibition is -1.47

---

target: NT-3 growth factor receptor (Homo sapiens) (UniProt Q16288); details: at 0.1 µM;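 further: mean percent inhibition of TRKC, reported within the GSK PKIS dataset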
Sequence (Q16288 32-839 limits assumed): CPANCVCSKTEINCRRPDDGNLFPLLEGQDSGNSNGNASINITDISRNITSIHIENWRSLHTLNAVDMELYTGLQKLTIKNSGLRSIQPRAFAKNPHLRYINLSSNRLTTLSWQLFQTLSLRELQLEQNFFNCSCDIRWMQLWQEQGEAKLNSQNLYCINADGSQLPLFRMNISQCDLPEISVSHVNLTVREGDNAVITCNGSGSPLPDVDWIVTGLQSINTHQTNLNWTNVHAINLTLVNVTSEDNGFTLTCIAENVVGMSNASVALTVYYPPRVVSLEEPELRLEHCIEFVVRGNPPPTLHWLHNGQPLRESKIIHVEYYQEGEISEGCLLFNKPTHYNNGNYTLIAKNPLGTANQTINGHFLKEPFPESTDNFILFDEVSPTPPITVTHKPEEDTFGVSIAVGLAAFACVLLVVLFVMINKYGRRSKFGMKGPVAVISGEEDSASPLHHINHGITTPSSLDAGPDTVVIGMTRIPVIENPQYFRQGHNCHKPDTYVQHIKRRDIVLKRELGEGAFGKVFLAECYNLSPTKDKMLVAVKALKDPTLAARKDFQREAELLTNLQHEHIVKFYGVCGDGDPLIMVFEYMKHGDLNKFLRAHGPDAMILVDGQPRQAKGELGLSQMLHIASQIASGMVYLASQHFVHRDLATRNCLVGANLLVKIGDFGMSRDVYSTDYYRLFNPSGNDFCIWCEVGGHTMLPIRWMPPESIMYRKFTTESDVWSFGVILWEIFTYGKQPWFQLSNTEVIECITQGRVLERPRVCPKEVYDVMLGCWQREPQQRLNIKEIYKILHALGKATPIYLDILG
measured_metric: inhibition (%)
Lab book: enter the figure in %, no units written.

As a guide, the following entries are already answered.
1. CC1=C(C(=O)Nc2cc(Cl)c3[nH]ncc3c2)C(c2ccc(C(F)(F)F)cc2)CC(=O)N1 (centres undefined) :: 3.39
2. COC(=O)Nc1nc2ccc(Oc3ccc(NC(=O)Nc4cccc(Cl)c4)cc3)cc2[nH]1 :: 11.7
3. CCNC(=O)O[C@H]1CN[C@H](C#Cc2cc3ncnc(Nc4ccc(OCc5cccc(F)c5)c(Cl)c4)c3s2)C1 :: 2.47
4. c1ccc(COc2ccc(Nc3ncnc4ccc(-c5ccco5)cc34)cc2)cc1 :: -0.16
5. Nc1nc(-c2ccc(F)cc2)c(-c2ccc3ncccc3n2)s1 :: 3.72
6. FC(F)(F)c1cccc(-c2nn3ncccc3c2-c2ccnc(Nc3ccc4c(c3)OCCO4)n2)c1 :: 0.62
7. Nc1nc(-c2cccc(Cl)c2)c(-c2ccc3ncccc3n2)s1 :: 2.95
8. CC(=O)NCc1cccc(C#Cc2cncnc2Nc2ccc(OCc3cccc(F)c3)c(Cl)c2)c1 :: 0.24

// next entry
Noted for CCn1c(-c2nonc2N)nc2cnc(Oc3cccc(NC(=O)c4ccc(N(C)C)cc4)c3)cc21 : its inhibition reads -0.04

---

test system: Serine/threonine-protein kinase B-raf (Homo sapiens), P15056 [V600E]; details: at 0.1 µM;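 further: mean inhibition of the BRAF V599E mutant, from GSK PKIS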
Sequence (P15056 whole entry V600E): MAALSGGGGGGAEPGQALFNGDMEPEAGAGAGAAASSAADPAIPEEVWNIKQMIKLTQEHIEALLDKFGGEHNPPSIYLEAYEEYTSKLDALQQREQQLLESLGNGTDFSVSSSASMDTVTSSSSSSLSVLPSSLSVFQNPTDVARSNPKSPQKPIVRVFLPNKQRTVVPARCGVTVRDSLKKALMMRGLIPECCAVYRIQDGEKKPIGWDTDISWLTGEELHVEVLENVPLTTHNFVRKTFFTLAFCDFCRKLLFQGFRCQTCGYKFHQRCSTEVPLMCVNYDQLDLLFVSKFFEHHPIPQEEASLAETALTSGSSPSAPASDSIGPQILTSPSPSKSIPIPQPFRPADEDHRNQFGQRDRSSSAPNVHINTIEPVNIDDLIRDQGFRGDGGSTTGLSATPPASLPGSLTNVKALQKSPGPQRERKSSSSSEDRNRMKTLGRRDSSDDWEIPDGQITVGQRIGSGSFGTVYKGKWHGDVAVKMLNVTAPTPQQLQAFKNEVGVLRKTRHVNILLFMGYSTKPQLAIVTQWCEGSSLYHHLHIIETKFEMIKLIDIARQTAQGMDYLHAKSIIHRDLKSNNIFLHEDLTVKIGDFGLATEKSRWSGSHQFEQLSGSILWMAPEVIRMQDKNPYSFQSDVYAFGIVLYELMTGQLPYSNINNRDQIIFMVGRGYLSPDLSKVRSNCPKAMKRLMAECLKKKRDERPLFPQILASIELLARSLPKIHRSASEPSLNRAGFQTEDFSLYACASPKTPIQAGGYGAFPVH
Description: GSK_PKIS: BRAF (V599E mutant) mean inhibition at 0.1 uM [Nanosyn]
measured_metric: inhibition
Hi, when you answer, please include the unit after the number. Thanks!

As a guide, the following entries are already answered.
1. FC(F)(F)c1cccc(-c2nn3ncccc3c2-c2ccnc(Nc3ccc4c(c3)OCCO4)n2)c1 :: 1.76%
2. CC1=C(C(=O)Nc2cc(Cl)c3[nH]ncc3c2)C(c2ccc(C(F)(F)F)cc2)CC(=O)N1 (stereo not given) :: 10.2%
3. CS(=O)(=O)CCNCc1ccc(-c2ccc3ncnc(Nc4ccc(OCc5ccccc5)c(C(F)(F)F)c4)c3c2)o1 :: 3.97%
4. CC(C)(CO)CNC(=O)c1ccc2c(c1)/C(=N/Nc1ccc(S(N)(=O)=O)cc1)C(=O)N2 :: 7.49%
5. CCn1c(-c2nonc2N)nc2cnc(Oc3cccc(NC(=O)c4ccc(N(C)C)cc4)c3)cc21 :: 2.62%

Noted for COc1ccc(-c2cc3c(N)ncnc3o2)cc1 : its inhibition reads -0.23%

Noted for CC(=O)Nc1cccc(C#Cc2cncnc2Nc2ccc(OCc3cccc(F)c3)c(Cl)c2)c1 : its inhibition reads 1.85%

Noted for COc1ccc(-c2nn3ncccc3c2-c2ccnc(Nc3ccc4c(c3)OCCO4)n2)cc1 : its inhibition reads 1.25%

Noted for CC(C)COC(=O)c1ccc2c(c1)/C(=C/Nc1ccc(S(N)(=O)=O)cc1)C(=O)N2 : its inhibition reads 1.68%

Noted for Cc1cccc2c1NC(=O)/C2=N\Nc1ccc(S(N)(=O)=O)cc1 : its inhibition reads 2.89%

---

Target: Dual specificity protein kinase TTK (Homo sapiens);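 further: reported figures are mean TTK inhibition at 1 µM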
Sequence (whole entry): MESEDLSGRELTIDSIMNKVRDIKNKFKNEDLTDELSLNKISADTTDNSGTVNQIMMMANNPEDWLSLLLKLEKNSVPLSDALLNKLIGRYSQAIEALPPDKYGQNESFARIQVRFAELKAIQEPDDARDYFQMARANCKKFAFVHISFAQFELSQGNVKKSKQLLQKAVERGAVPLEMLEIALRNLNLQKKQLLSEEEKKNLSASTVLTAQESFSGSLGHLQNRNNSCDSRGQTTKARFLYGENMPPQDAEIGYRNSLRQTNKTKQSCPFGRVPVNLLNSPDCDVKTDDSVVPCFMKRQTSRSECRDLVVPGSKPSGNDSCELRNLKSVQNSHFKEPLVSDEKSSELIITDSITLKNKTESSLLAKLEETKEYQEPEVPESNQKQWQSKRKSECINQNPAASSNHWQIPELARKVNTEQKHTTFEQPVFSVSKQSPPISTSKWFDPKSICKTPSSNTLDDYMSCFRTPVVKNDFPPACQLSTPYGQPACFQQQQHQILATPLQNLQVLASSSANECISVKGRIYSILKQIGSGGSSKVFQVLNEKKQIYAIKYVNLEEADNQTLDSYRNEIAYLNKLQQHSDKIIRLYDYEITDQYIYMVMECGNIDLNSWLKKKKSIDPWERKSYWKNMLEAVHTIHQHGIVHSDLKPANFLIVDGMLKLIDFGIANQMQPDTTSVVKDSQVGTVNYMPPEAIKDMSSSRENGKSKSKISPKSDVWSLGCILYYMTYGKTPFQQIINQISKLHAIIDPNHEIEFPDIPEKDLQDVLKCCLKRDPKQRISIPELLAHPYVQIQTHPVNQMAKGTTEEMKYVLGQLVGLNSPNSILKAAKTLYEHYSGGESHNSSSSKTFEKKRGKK
Details: at 1 µM
# Lookup of reported inhibition keyed by entry
Lab book: enter the figure in %, no units written.

Noted for CCc1nn2ncccc2c1-c1ccnc(NC2CC2)n1 : its inhibition reads 6.05

Noted for c1ccc(-c2nc3n(c2-c2ccc4c(c2)OCO4)CCC3)nc1 : its inhibition reads 0.07

Noted for Fc1ccc(-c2nn3ccccc3c2-c2ccncc2)cc1 : its inhibition reads 2.44

Numbers sourced from ChEMBL document CHEMBL1961873.
